molecular target: T1, cyno FcRn/b2M (cyno, UniProt Q8SPV9 24-297; Q8SPW0 21-119, biotinylated); assay: SPR pH 7.4
T1 construct: bought recombinant biotinylated protein (Immunitrack ITF05 or ACRO FCM-C82W5); also called cFcRn; cFcRn/cb2M
T1 sequence (Q8SPV9 24-297 limits assumed, chain 1 of 2): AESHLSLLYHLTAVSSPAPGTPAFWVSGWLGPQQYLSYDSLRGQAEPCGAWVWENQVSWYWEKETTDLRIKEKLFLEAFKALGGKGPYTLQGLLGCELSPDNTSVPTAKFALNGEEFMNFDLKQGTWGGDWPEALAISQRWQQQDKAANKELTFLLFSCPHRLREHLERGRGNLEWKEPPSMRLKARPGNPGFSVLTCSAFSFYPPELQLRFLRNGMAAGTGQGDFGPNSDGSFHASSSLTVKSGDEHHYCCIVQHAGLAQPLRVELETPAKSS
T1 sequence (Q8SPW0 21-119 limits assumed, chain 2 of 2): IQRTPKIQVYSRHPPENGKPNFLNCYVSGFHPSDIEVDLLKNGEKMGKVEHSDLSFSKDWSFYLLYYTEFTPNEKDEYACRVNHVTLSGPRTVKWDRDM
Measured Metric: Kd
Please state the number and follow it with the unit.

Q: Given the binder T026301170 (bispecific antibody, bispecific ISVD construct; also called T0263018B11(E1D)-35GS-ALB23002-A) DVQLVESGGGVVQPGGSLRLSCAASGFTFSSYAMYWVRQAPGKGLEWVSAISSGGGSTDYADSVKGRFTISRDNSKNTLYLQMNSLRPEDTALYYCAADTLYTSLTWYSYWGQGTLVTVSSGGGGSGGGGSGGGGSGGGGSGGGGSGGGGSGGGGSEVQLVESGGGVVQPGGSLRLSCAASGFTFRSFGMSWVRQAPGKGPEWVSSISGSGSDTLYADSVKGRFTISRDNSKNTLYLQMNSLRPEDTALYYCTIGGSLSRSSQGTLVTVSSA , what is its reported Kd?
Ans: 290 nM

Q: Then what about the binder T026301197 (bispecific antibody, name in Kabat numbering, bispecific ISVD construct; also called T0263018B11(E1D, S52aQ)-35GS-ALB23002-A) DVQLVESGGGVVQPGGSLRLSCAASGFTFSSYAMYWVRQAPGKGLEWVSAISQGGGSTDYADSVKGRFTISRDNSKNTLYLQMNSLRPEDTALYYCAADTLYTSLTWYSYWGQGTLVTVSSGGGGSGGGGSGGGGSGGGGSGGGGSGGGGSGGGGSEVQLVESGGGVVQPGGSLRLSCAASGFTFRSFGMSWVRQAPGKGPEWVSSISGSGSDTLYADSVKGRFTISRDNSKNTLYLQMNSLRPEDTALYYCTIGGSLSRSSQGTLVTVSSA ?
Ans: 2400 nM

Q: Then what about the binder T026301192 (bispecific antibody, name in Kabat numbering, bispecific ISVD construct; also called T0263018B11(E1D, S100E)-35GS-ALB23002-A) DVQLVESGGGVVQPGGSLRLSCAASGFTFSSYAMYWVRQAPGKGLEWVSAISSGGGSTDYADSVKGRFTISRDNSKNTLYLQMNSLRPEDTALYYCAADTLYTELTWYSYWGQGTLVTVSSGGGGSGGGGSGGGGSGGGGSGGGGSGGGGSGGGGSEVQLVESGGGVVQPGGSLRLSCAASGFTFRSFGMSWVRQAPGKGPEWVSSISGSGSDTLYADSVKGRFTISRDNSKNTLYLQMNSLRPEDTALYYCTIGGSLSRSSQGTLVTVSSA ?
Ans: 480 nM

Q: Then what about the binder T026301198 (bispecific antibody, name in Kabat numbering, bispecific ISVD construct; also called T0263018B11(E1D, W100cS)-35GS-ALB23002-A) DVQLVESGGGVVQPGGSLRLSCAASGFTFSSYAMYWVRQAPGKGLEWVSAISSGGGSTDYADSVKGRFTISRDNSKNTLYLQMNSLRPEDTALYYCAADTLYTSLTSYSYWGQGTLVTVSSGGGGSGGGGSGGGGSGGGGSGGGGSGGGGSGGGGSEVQLVESGGGVVQPGGSLRLSCAASGFTFRSFGMSWVRQAPGKGPEWVSSISGSGSDTLYADSVKGRFTISRDNSKNTLYLQMNSLRPEDTALYYCTIGGSLSRSSQGTLVTVSSA ?
Ans: 2900 nM
